Tested on: MT4
Test: Tested for in vitro cytopathic effect of HIV for MT-4 cells
Format: functional, cell-based
Conditions: Homo sapiens
Readout kind: EC50 (nM)
Write the value in nM as a bare number.

**Query** Could you share which EC50 value was measured for Cc1cn([C@H]2C[C@H](N=[N+]=[N-])[C@@H](CO)O2)c(=O)[nH]c1=O ?
**Result** 4

* * *

# Lookup of reported FLT keyed by entry
Assay: Tested for in vitro percent of 3'-fluoro-3'-deoxythymidine(FLT) formed upon incubation with glutathione
Type: ADME
// return numeric value only (unit: %, not printed)

Sample records with FLT:
| Molecule | FLT, % |
| --- | --- |
| CO[C@H]1N(C2CC(F)C(CO)O2)C(=O)NC(=O)[C@]1(C)Cl (some centres not stated) | 0 |
| CO[C@@H]1N(C2CC(F)C(CO)O2)C(=O)NC(=O)[C@@]1(C)I (some centres not stated) | 90 |
| CO[C@H]1N(C2CC(F)C(CO)O2)C(=O)NC(=O)[C@]1(C)Br (some centres not stated) | 10 |
| CC1(Br)C(=O)NC(=O)N([C@H]2C[C@H](F)[C@@H](CO)O2)C1N=[N+]=[N-] (mixture of isomers) | 95 |
| CO[C@@H]1N(C2CC(F)C(CO)O2)C(=O)NC(=O)[C@@]1(C)Br (some centres not stated) | 10 |
| CO[C@H]1N(C2CC(F)C(CO)O2)C(=O)NC(=O)[C@@]1(C)Cl (some centres not stated) | 0 |

**Query** Could you tell me which FLT is on file for CO[C@H]1N(C2CC(F)C(CO)O2)C(=O)NC(=O)[C@]1(C)I (some centres not stated) ?
**Result** 50

* * *

Experiment: Selectivity index is the ratio of CC50 to that of EC50 (anti-hepatitis B virus activity in intracellular DNA)
Type: functional
Readout kind: Selectivity index
# respond with the number and nothing more

| Compound | Selectivity index |
| --- | --- |
| CO[C@@H]1N(C2CC(F)C(CO)O2)C(=O)NC(=O)[C@@]1(C)Br (some centres undefined) | 8.8 |
| Nc1ccn([C@H]2CC[C@@H](CO)O2)c(=O)n1 | 18 |
| CO[C@H]1N(C2CC(F)C(CO)O2)C(=O)NC(=O)[C@]1(C)Br (some centres undefined) | 18 |

Query compound follows.
**Query** Need Selectivity index of CC1(Br)C(=O)NC(=O)N([C@H]2C[C@H](F)[C@@H](CO)O2)C1N=[N+]=[N-] (mixture of isomers) , thanks.
**Result** 3.1

* * *

Measured EC90 by item
Assay: Compound was tested in vitro against intracellular DNA hepatitis B virus of human liver cells
Assay type: functional

Solved cases below.
| Compound | EC90 |
| --- | --- |
| CO[C@@H]1N(C2CC(F)C(CO)O2)C(=O)NC(=O)[C@@]1(C)Br (some centres undefined) | 118 µM |
| Nc1ccn([C@H]2CC[C@@H](CO)O2)c(=O)n1 | 12 µM |
| CC1(Br)C(=O)NC(=O)N([C@H]2C[C@H](F)[C@@H](CO)O2)C1N=[N+]=[N-] (mixture of isomers) | 57 µM |

Consider the additional compound presented here.
**Query** If you can, please state the reported EC90 value of CO[C@H]1N(C2CC(F)C(CO)O2)C(=O)NC(=O)[C@]1(C)Br (some centres undefined) .
**Result** 42 µM
